These entries and their values trace back to ChEMBL document CHEMBL1152819.

Test: Cytotoxicity against human HepG2(2.2.15) cells after 24 hrs by neutral red uptake assay
Type: cell-based
Settings: Homo sapiens, HepG2 2.2.15, 24 h
pEC50: −log10 of the molar value.
Recorded Metric: pEC50

Quick check: pEC50 of CCCCCCCCCCCCCCCCOCCCOP(=O)(O)CO[C@H](C)Cn1cnc2c(N)ncnc21 [TENOFOVIR EXALIDEX] ?
< 3.52

###

Listed here: items and their measured CC50.
Assay: Cytotoxicity against human PBMC by XTT assay
Type: cell-based

For the compound shown here, C[C@H](Cn1cnc2c(N)ncnc21)OCP(=O)(O)O [TENOFOVIR ANHYDROUS] , give the reported CC50.
1270 µM

Would you kindly repeat that for `CCCCCCCCCCCCCCCCOCCCOP(=O)(O)CO[C@H](C)Cn1cnc2c(N)ncnc21` ?
144 µM

###

Assay: AUC (0 to 24 hrs) in Sprague-Dawley rat at 10 mg/kg, po administered daily for 7 days measured on day 1
Format: ADME, organism-based
Parameters: time < 24 hr, dose 10 mg/kg, route oral
Settings: plasma
Recorded Metric: AUC(0-t) at 24 h (ng·h/mL)
Form entry: value (ng·h/mL) — number only.

Which value of AUC(0-t) at 24 h has been reported for CCCCCCCCCCCCCCCCOCCCOP(=O)(O)CO[C@H](C)Cn1cnc2c(N)ncnc21 [TENOFOVIR EXALIDEX] in the records?
442

###

Assay: Cytotoxicity against human HepG2(2.2.15) cells after 24 hrs by neutral red uptake assay
Type: cell-based
Conditions: human, HepG2 2.2.15 cells
Recorded Metric: CC50 at 24 h

I have this molecule here, C[C@H](Cn1cnc2c(N)ncnc21)OCP(=O)(O)O [TENOFOVIR ANHYDROUS] , and I need its recorded CC50 at 24 h.
> 300 µM

###

Test: Cytotoxicity against human HepG2 cells by MTS assay
Assay type: cell-based
Conditions: human, HepG2 cells
Recorded Metric: CC50

Using the record for C[C@H](Cn1cnc2c(N)ncnc21)OCP(=O)(O)O [TENOFOVIR ANHYDROUS] , report its CC50.
> 100 µM

###

Assay: AUC (0 to 24 hrs) in Sprague-Dawley rat at 30 mg/kg, po administered daily for 7 days measured on day 7
Assay type: ADME, organism-based
Design: time < 24 hr, dose 30 mg/kg, route oral
Details: plasma
Recorded Metric: AUC at 24 h (ng·h/mL)
Write the number in ng·h/mL without appending the unit.

Request the reported AUC at 24 h associated with CCCCCCCCCCCCCCCCOCCCOP(=O)(O)CO[C@H](C)Cn1cnc2c(N)ncnc21 [TENOFOVIR EXALIDEX]
1540

###

Test system: Hepatitis B virus
Experiment: Antiviral activity against HBV in human HepAD38 cells assessed as intracellular viral DNA levels treated for 3 days measured on day 6 […] by RT-PCR
Type: functional, organism-based
Recorded Metric: EC50 (µM)
Note: unit µM is implicit; provide only the numeric part.

>>> df
                                   compound  unit_text  reading
0  CCCCCCCCCCCCCCCCOCCCOP(=O)(O)CO[C@H](C)Cn1cnc2c(N)ncnc21         µM     0.49

Please look at the following compound next.
Would you kindly share the measured EC50 for C[C@H](Cn1cnc2c(N)ncnc21)OCP(=O)(O)O [TENOFOVIR ANHYDROUS] ?
2.25

###

Assay: Tmax in Sprague-Dawley rat at 30 mg/kg, po administered daily for 7 days measured on day 7
Type: ADME, organism-based
Design: dose 30 mg/kg, route oral
Details: in vivo
Recorded Metric: Tmax (h)
Give the value, in units of h, as a plain number.

If you can, please state the reported Tmax value of CCCCCCCCCCCCCCCCOCCCOP(=O)(O)CO[C@H](C)Cn1cnc2c(N)ncnc21 [TENOFOVIR EXALIDEX] .
1

###

Assay: Elimination half life in Sprague-Dawley rat at 100 mg/kg, po administered daily for 7 days measured on day 1
Type: ADME, organism-based
Set-up: dose 100 mg/kg, route oral
Details: in vivo, read-out: beta t1/2 (converted)
Recorded Metric: half-life (min)
Answer format: numeric, min implied, no suffix.

Which measured half-life value corresponds to `CCCCCCCCCCCCCCCCOCCCOP(=O)(O)CO[C@H](C)Cn1cnc2c(N)ncnc21` ?
150

###

Assay: Tmax in Sprague-Dawley rat at 10 mg/kg, po administered daily for 7 days measured on day 7
Assay type: ADME, organism-based
Design: dose 10 mg/kg, route oral
Details: in vivo
Recorded Metric: Tmax (min)
Lab book: enter the figure in min, no units written.

GET /values?readout=Tmax&item= `CCCCCCCCCCCCCCCCOCCCOP(=O)(O)CO[C@H](C)Cn1cnc2c(N)ncnc21`
30

###

Experiment: Selectivity index, ratio of CC50 for human MT2 cells to EC50 for HIV1 LAI
Assay type: toxicity, cell-based
Conditions: read-out: Ratio CC50/EC50
Recorded Metric: selectivity ratio

                                   compound    reading
0  CCCCCCCCCCCCCCCCOCCCOP(=O)(O)CO[C@H](C)Cn1cnc2c(N)ncnc21  > 5.4e+06

So what's the measured selectivity ratio for this one? C[C@H](Cn1cnc2c(N)ncnc21)OCP(=O)(O)O [TENOFOVIR ANHYDROUS]
> 154

###

Experiment: AUC (0 to 24 hrs) in Sprague-Dawley rat at 100 mg/kg, po administered daily for 7 days measured on day 7
Assay type: ADME, organism-based
Design: time < 24 hr, dose 100 mg/kg, route oral
Settings: plasma
Recorded Metric: AUC at 24 h (ng·h/mL)
Please state the figure in ng·h/mL; there is no need to write the unit.

What measured AUC at 24 h goes with `CCCCCCCCCCCCCCCCOCCCOP(=O)(O)CO[C@H](C)Cn1cnc2c(N)ncnc21` ?
8410
